Data origin: patent US20260297060A1

- TEST_PROTOCOL: Example 9 pharmacokinetics assay for efficacy study Part I and II (plasma, liver)
- Type: in vivo, BALB/c nude mice
- CONDITION_LABEL: mouse, plasma, po; 10 mg/kg, p.o., BID × 14 days; 6 h following treatment; ± SEM; read-out: Mean Concentration in Plasma
- Procedure: For efficacy study Part I, agents were tested in the A375 human melanoma xenografts. Compound 218 and Compound 157 were administered to BALB/c nude mice bearing A375 xenografts from day 0 and dosed twice a day (BID) for 14 days. Compound 218 and Compound 157 were dosed at 10 mg/kg via p.o.. Dabrafenib was administered from day 1 daily (QD) for 14 days and dosed at 100 mg/kg via p.o.. For efficacy study Part II, agents were tested in the A375 human melanoma xenografts model. […]
OBSERVED_PROPERTY: concentration at 6 h (ng/mL)

[1] Cn1nc(N2CCC(=O)NC2=O)c2cc(F)c(N3CC4(CC(N5CCC6(CC5)C[C@@H](n5cnc7ccc(Oc8c(F)ccc(NS(=O)(=O)N9CC[C@@H](F)C9)c8C#N)cc7c5=O)CO6)C4)C3)cc21 [Compound 133]
[2] CO[C@@H]1CCN(S(=O)(=O)Nc2ccc(F)c(Oc3ccc4ncn([C@H]5COC6(CCN(C7CC8(C7)CN(c7cc9c(cc7F)c(N7CCC(=O)NC7=O)nn9C)C8)CC6)C5)c(=O)c4c3)c2C#N)C1 [Compound 144]
[3] CCN(C)S(=O)(=O)Nc1ccc(F)c(Oc2ccc3ncn(C4CC5(CCN(C6CC7(CCN(c8cc9c(cc8F)c(N8CCC(=O)NC8=O)nn9C)CC7)C6)CC5)C4)c(=O)c3c2)c1C#N (stereo not drawn) [Compound 198]
Req: Order the entries by their reported concentration at 6 h, beginning at the minimum. Order the labels as requested and list them.
Resp: 1, 3, 2
(1: 5070 ng/mL, 3: 7640 ng/mL, 2: 14700 ng/mL)

###

- TEST_PROTOCOL: Pharmacokinetics in female BALB/c nude mice bearing A375 xenografts, 1 day dosing (PK and PD study): plasma, tumor and brain concentrations, AUC
- Format: in vivo
- CONDITION_LABEL: mouse, plasma, po, 1 mg/kg, 1 mg/kg p.o. TID × 1 day; post 1st dose; 2 h; read-out: Mean Concentration in Plasma ± SEM
OBSERVED_PROPERTY: concentration at 2 h (ng/mL)
State just the number; it will be interpreted in ng/mL.

Req: I have this compound here, CCN(C)S(=O)(=O)Nc1ccc(F)c(Oc2ccc3ncn(C4CC5(CCN(C6CC7(C6)CN(c6cc8c(cc6F)c(N6CCC(=O)NC6=O)nn8C)C7)CC5)C4)c(=O)c3c2)c1C#N (stereo not shown) , and I need its recorded concentration at 2 h.
Resp: 1000

###

- TEST_PROTOCOL: Pharmacokinetics in female BALB/c nude mice bearing A375 xenografts, 1 day dosing (PK and PD study): plasma, tumor and brain concentrations, AUC
- Format: in vivo
- CONDITION_LABEL: mouse, plasma, po, 1.5 mg/kg, Compound 141; 1.5 mg/kg p.o. BID × 1 day; post 1st dose; 0.25 h; read-out: Mean Concentration in Plasma ± SEM
OBSERVED_PROPERTY: concentration at 0.25 h (ng/mL)
State just the number; it will be interpreted in ng/mL.

Req: I have this molecule here, CCN(C)S(=O)(=O)Nc1ccc(F)c(Oc2ccc3ncn(C4CC5(CCN(C6CC7(C6)CN(c6cc8c(cc6F)c(N6CCC(=O)NC6=O)nn8C)C7)CC5)C4)c(=O)c3c2)c1C#N (stereo not shown) , and I need its recorded concentration at 0.25 h.
Resp: 710

###

- TEST_PROTOCOL: Pharmacokinetics in female BALB/c nude mice bearing A375 xenografts, 1 day dosing (PK and PD study): plasma, tumor and brain concentrations, AUC
- Type: in vivo
- CONDITION_LABEL: mouse, tumor, po, 1 mg/kg, 1 mg/kg p.o. TID × 1 day; post 3rd dose; 24 h; read-out: Mean Concentration in Tumor ± SEM
OBSERVED_PROPERTY: concentration at 24 h (ng/g)
State just the number; it will be interpreted in ng/g.

Req: I have this molecule here, CCN(C)S(=O)(=O)Nc1ccc(F)c(Oc2ccc3ncn(C4CC5(CCN(C6CC7(C6)CN(c6cc8c(cc6F)c(N6CCC(=O)NC6=O)nn8C)C7)CC5)C4)c(=O)c3c2)c1C#N (stereo not shown) [Compound 141] , and I need its recorded concentration at 24 h.
Resp: 16.7

###

- TEST_PROTOCOL: Pharmacokinetics in female BALB/c nude mice bearing A375 xenografts, 1 day dosing (PK and PD study): plasma, tumor and brain concentrations, AUC
- Type: in vivo
- CONDITION_LABEL: mouse, tumor, po, 0.75 mg/kg, 0.75 mg/kg p.o. BID × 1 day; post 2nd dose; 1 h; read-out: Mean Concentration in Tumor ± SEM
OBSERVED_PROPERTY: concentration at 1 h (ng/g)
State just the number; it will be interpreted in ng/g.

Req: I have this molecule here, CCN(C)S(=O)(=O)Nc1ccc(F)c(Oc2ccc3ncn(C4CC5(CCN(C6CC7(C6)CN(c6cc8c(cc6F)c(N6CCC(=O)NC6=O)nn8C)C7)CC5)C4)c(=O)c3c2)c1C#N (stereo not shown) , and I need its recorded concentration at 1 h.
Resp: 117

###

- TARGET: BRAF V600E (Homo sapiens, UniProt P15056+Q96SW2, V600E)
- Construct: knock-in of the HiBiT tag to the endogenous BRAF V600E locus; host or cells: A375.10 (A375 clonal line, CRISPR HiBiT knock-in at the endogenous BRAF V600E locus)
- Sequence (P15056 whole entry V600E): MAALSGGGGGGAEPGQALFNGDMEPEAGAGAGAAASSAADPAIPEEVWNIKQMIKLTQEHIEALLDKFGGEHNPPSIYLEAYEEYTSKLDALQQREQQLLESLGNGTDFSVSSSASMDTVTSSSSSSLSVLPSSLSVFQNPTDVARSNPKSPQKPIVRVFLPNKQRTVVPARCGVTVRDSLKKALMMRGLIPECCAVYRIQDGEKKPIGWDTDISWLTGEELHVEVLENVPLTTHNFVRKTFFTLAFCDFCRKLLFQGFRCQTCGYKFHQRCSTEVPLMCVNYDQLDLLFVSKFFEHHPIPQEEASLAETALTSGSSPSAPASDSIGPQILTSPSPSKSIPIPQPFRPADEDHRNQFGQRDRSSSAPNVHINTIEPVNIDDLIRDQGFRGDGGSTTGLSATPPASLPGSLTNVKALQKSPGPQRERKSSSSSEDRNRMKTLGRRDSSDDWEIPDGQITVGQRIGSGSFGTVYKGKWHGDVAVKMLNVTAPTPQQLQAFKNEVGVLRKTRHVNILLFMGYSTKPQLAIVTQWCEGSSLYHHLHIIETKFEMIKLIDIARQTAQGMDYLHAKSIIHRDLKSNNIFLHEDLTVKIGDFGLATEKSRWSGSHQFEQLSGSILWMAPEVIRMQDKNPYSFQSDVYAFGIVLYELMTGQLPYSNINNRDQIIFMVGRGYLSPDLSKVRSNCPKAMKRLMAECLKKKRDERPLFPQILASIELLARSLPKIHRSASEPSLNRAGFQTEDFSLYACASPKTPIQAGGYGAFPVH
- Sequence (Q96SW2 whole entry): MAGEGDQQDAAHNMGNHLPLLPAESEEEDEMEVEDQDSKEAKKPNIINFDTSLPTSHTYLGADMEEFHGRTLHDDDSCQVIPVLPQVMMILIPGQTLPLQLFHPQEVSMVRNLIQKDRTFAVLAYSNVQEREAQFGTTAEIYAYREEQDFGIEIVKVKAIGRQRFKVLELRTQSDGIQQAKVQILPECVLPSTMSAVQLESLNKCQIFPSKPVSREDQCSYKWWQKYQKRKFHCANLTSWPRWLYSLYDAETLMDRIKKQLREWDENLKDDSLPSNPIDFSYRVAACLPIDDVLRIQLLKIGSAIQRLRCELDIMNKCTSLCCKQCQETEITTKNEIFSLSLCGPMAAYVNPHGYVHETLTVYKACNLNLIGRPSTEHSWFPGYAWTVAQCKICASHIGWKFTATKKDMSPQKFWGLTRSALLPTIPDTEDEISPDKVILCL
- Sequence (Q16531 whole entry partner): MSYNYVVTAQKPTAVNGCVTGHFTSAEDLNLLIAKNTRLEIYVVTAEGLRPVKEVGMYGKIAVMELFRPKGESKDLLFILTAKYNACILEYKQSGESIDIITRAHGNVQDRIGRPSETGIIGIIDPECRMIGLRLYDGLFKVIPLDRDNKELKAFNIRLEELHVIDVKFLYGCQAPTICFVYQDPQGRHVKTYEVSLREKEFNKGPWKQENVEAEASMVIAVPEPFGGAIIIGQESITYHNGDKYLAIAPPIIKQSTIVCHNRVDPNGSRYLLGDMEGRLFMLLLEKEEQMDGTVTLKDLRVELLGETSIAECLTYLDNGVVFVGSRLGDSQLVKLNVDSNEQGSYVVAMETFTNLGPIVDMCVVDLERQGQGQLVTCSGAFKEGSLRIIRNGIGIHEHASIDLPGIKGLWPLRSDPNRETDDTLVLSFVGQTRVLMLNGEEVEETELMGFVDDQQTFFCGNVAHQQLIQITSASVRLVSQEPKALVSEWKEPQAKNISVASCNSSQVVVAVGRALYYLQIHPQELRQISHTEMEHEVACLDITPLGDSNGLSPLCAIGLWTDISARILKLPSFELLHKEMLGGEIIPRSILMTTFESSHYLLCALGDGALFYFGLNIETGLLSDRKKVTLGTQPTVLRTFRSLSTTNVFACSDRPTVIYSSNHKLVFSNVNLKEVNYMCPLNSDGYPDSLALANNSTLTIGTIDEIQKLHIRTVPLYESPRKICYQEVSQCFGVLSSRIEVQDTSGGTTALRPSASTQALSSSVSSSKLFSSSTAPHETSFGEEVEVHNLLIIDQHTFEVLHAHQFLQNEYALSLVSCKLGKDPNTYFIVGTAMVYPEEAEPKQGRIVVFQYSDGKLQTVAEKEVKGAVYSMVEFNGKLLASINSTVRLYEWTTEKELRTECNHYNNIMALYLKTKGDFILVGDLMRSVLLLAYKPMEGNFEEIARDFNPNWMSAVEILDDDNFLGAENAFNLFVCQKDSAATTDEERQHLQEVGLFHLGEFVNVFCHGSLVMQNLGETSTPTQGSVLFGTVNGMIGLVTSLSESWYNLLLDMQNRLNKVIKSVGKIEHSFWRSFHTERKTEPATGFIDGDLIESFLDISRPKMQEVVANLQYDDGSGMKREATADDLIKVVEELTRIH
- TEST_PROTOCOL: BRAF V600E HiBiT Degradation Assay
- Type: cell-based
- CONDITION_LABEL: A375.10 cells, BRAF V600E, 2 hours; read-out: HiBiT-Degradation A375.10 BRAF 2 hours DC50
Listed here are compounds together with their documented DC50.

Example results:
• CCN(C)S(=O)(=O)Nc1ccc(F)c(Oc2ccc3ncc(C4CC5(CCN(C6CCC(c7cc8c(cc7F)c(N7CCC(=O)NC7=O)nn8C)CC6)CC5)C4)nc3c2)c1C#N (single isomer, unassigned) [Compound 180] = < 1 µM
• CC(C)S(=O)(=O)Nc1ccc(F)c(Oc2ccc3ncn(C4CC5(CCN(C6CCC(c7cc8c(cc7F)c(N7CCC(=O)NC7=O)nn8C)CC6)CC5)C4)c(=O)c3c2)c1C#N (single isomer, unassigned) [Compound 96] = < 1 µM
• CCN(C)S(=O)(=O)Nc1ccc(F)c(Oc2ccc3ncc(C4CC5(C4)CN(C4CCC(c6cc7c(cc6F)c(N6CCC(=O)NC6=O)nn7C)CC4)C5)nc3c2)c1C#N (single isomer, unassigned) [Compound 297] = 1 to 10 µM

Req: I have this compound here, CCN(C)S(=O)(=O)Nc1ccc(F)c(Oc2ccc3ncc(OC4CCN(C5CCC(c6cc7c(cc6F)c(N6CCC(=O)NC6=O)nn7C)CC5)CC4)nc3c2)c1C#N (single isomer, unassigned) , and I need its recorded DC50.
Resp: 1 to 10 µM

Req: I have this compound here, CCN(C)S(=O)(=O)Nc1ccc(F)c(C(=O)c2ccc3ncn(C4CC5(CCN(C6CCC(c7ccc(NC8CCC(=O)NC8=O)cc7F)CC6)CC5)C4)c(=O)c3c2)c1F (single isomer, unassigned) [Compound 200] , and I need its recorded DC50.
Resp: < 1 µM

Req: I have this compound here, CCN(C)S(=O)(=O)Nc1ccc(F)c(Oc2ccc3ncc([C@@H]4COC5(CCN(C6CCC(c7ccc(NC8CCC(=O)NC8=O)cc7F)CC6)CC5)C4)nc3c2)c1C#N (single isomer, unassigned) [Compound 61] , and I need its recorded DC50.
Resp: 1 to 10 µM

Req: I have this compound here, CCN(C)S(=O)(=O)Nc1ccc(F)c(Oc2ccc3ncn([C@@H]4COC5(CCN(C6CCC(c7cc8c(cc7F)c(N7CCC(=O)NC7=O)nn8C)CC6)CC5)C4)c(=O)c3c2F)c1C#N (single isomer, unassigned) [Compound 47] , and I need its recorded DC50.
Resp: < 1 µM

Req: I have this compound here, CO[C@H]1CCN(S(=O)(=O)Nc2ccc(F)c(Oc3ccc4ncn([C@H]5COC6(CCN(C7CCC(c8ccc(NC9CCC(=O)NC9=O)cc8F)CC7)CC6)C5)c(=O)c4c3)c2C#N)C1 (single isomer, unassigned) , and I need its recorded DC50.
Resp: < 1 µM

Req: I have this compound here, CCN(C)S(=O)(=O)Nc1ccc(F)c(Oc2ccc3ncn([C@H]4COC5(CCN(C6CCC(c7ccc(N[C@H]8CCC(=O)NC8=O)cc7F)CC6)CC5)C4)c(=O)c3c2)c1C#N (single isomer, unassigned) , and I need its recorded DC50.
Resp: < 1 µM

###

- TARGET: BRAF V600E (Homo sapiens, UniProt P15056+Q96SW2, V600E)
- Construct: knock-in of the HiBiT tag to the endogenous BRAF V600E locus; host or cells: A375.10 (A375 clonal line, CRISPR HiBiT knock-in at the endogenous BRAF V600E locus)
- TEST_PROTOCOL: BRAF V600E HiBiT Degradation Assay
- Assay type: cell-based
- CONDITION_LABEL: A375.10 cells, BRAF V600E, 6 hours; inflection point; read-out: HiBiT-Degradation A375.10 BRAF 6 hours IP
OBSERVED_PROPERTY: DC50

• CO[C@@H]1CCN(S(=O)(=O)Nc2ccc(F)c(Oc3ccc4ncn(C5CC6(CCN(C7CCC(c8cc9c(cc8F)c(N8CCC(=O)NC8=O)nn9C)CC7)CC6)C5)c(=O)c4c3)c2C#N)C1 (single isomer, unassigned) [Compound 102] = < 1000 nM

Req: I have this compound here, CO[C@H]1CCN(S(=O)(=O)Nc2ccc(F)c(Oc3ccc4ncn([C@H]5COC6(CCN(C7CCC(c8cc9c(cc8F)c(N8CCC(=O)NC8=O)nn9C)CC7)CC6)C5)c(=O)c4c3)c2C#N)C1 (single isomer, unassigned) , and I need its recorded DC50.
Resp: < 1000 nM
